Molecular target: T1, H4-15 histone H4 tail peptide
T1 chain: GRGKGGKGLGKGGAK
QUANTITY KIND: V/K (M⁻¹ s⁻¹)
Give the quantity in M⁻¹ s⁻¹, number only.

Asked: Returns the measured V/K for the input protein. Input: semi-synthetic p300 HAT domain T1357R (protein) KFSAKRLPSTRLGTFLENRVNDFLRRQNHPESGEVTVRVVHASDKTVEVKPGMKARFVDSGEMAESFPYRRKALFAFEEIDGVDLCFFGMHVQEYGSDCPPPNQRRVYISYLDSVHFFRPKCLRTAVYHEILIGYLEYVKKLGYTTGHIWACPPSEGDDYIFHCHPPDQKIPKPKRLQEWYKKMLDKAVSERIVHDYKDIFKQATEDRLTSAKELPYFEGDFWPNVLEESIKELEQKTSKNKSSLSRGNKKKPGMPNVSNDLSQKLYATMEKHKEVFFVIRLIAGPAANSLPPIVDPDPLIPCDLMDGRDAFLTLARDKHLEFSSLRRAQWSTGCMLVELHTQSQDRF
Given back: 13200
